I'd be grateful if you could share measured Tm for these entries.
- assayNotes: melting temperature; melt of duplexes
- assayConditions: sodium 0.0675 M; strand 1 µM
One number for each entry, in °C.

Provide Tm for all items below, preserving their order.
1. CGACGTGCGTTATGTGCTG+CAGCACATTGAGCACGTCG ((((((((...((((((((+))))))))...))))))))
2. CGACGTGCACTATGTGCTG+CAGCACATGCTGCACGTCG (((((((((..((((((((+))))))))..)))))))))
3. CGACGTGCGTGATGTGCTG+CAGCACATCGAGCACGTCG ((((((((..(((((((((+)))))))))..))))))))

54
45.5
58.6
